Hello, the source for this data is patent US10457654B2, in case you need it.

- study system: hNav1.7 (Homo sapiens (Human))
- assay: Patch voltage clamp electrophysiology assay (EP), Syncropatch 384PE, CHO cells expressing Nav1.7
- Type: cell-based
- conditions: holding potential -50 mV; […] compound incubation; read-out: EP_SP hNav1.7 (Ex. 243B) IC50
- Sequence (Q15858 other isoform, or with tags, fused parts or gaps): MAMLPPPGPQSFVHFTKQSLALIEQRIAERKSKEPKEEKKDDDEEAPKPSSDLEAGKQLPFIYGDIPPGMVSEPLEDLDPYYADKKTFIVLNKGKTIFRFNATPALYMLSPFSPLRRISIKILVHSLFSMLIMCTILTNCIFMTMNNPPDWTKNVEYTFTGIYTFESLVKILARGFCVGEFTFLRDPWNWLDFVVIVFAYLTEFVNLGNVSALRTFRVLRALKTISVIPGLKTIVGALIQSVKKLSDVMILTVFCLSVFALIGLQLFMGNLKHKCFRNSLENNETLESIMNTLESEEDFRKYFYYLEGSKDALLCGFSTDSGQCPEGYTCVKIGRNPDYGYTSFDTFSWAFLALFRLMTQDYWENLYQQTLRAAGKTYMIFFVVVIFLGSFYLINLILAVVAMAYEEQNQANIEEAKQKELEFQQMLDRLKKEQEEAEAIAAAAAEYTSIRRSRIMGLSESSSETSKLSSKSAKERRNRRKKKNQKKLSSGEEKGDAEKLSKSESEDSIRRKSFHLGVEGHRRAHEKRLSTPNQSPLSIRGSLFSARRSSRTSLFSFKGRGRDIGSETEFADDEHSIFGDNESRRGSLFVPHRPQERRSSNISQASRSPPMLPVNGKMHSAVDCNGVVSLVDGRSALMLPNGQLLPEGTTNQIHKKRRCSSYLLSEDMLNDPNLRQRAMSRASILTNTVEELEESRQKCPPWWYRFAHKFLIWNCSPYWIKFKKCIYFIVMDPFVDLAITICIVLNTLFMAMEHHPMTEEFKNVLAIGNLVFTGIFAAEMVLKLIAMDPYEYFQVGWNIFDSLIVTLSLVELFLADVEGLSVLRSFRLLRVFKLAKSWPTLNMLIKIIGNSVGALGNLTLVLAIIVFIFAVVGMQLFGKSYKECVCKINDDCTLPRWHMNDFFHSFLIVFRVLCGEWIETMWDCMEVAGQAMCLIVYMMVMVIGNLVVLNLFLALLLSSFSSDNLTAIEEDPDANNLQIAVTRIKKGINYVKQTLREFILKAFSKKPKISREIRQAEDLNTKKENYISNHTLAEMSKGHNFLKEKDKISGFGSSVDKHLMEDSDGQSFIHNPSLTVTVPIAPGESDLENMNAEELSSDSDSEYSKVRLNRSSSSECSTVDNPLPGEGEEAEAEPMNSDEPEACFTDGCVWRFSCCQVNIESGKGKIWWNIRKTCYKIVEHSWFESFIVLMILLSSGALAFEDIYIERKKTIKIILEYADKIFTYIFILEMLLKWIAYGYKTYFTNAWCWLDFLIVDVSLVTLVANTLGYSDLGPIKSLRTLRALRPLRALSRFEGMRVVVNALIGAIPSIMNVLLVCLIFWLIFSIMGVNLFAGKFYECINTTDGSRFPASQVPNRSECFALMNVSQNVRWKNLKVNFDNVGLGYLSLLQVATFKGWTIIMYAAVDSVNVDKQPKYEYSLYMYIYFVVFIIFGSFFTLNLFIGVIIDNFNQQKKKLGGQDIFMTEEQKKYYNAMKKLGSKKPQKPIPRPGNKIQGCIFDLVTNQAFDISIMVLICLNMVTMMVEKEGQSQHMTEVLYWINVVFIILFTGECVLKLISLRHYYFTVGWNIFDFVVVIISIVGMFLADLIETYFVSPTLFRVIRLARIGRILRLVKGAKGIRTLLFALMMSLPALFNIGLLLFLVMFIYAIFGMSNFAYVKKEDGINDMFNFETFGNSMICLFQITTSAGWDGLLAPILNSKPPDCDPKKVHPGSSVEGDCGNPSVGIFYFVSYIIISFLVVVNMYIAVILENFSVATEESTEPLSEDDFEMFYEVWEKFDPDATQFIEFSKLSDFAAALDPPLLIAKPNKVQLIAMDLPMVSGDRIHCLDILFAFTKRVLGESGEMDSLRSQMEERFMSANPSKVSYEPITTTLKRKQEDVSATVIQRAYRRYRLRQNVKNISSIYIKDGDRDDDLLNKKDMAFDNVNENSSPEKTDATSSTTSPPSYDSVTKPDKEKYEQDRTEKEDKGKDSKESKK
Below is a list of entries, each paired with its recorded IC50 value.
# value in nM; strip the unit string

As a guide, the following entries are already answered.
CN(C)[C@H]1CC=C(C(F)(F)F)C[C@@H]1Nc1cc(F)c(S(=O)(=O)Nc2nccs2)cc1Cl [Example 130]    9.92
CN1CC[C@H](C(=O)N(C)[C@H]2CCCC[C@@H]2Nc2cc(F)c(S(=O)(=O)Nc3nccs3)cc2Cl)C1 [Example 199]    18.7
CN(C1CN(CC(F)(F)F)C1)[C@H]1CCCC[C@@H]1Nc1cc(F)c(S(=O)(=O)Nc2nccs2)cc1Cl [Example 175]    21.7

Read the next record carefully.
[ask] What measured IC50 goes with CN1CC[C@@H]1C(=O)N(C)[C@H]1CCCC[C@@H]1Nc1cc(F)c(S(=O)(=O)Nc2nccs2)cc1Cl [Example 205] ?
[reply] 32.7

###

- study system: hNav1.7 (Homo sapiens (Human))
- assay: Tritiated compound binding to membranes from cells expressing hNav1.7 and the β1 subunit, modified protocol (LBA, Ex. 243B)
- conditions: 300 pM [3H]compound, room temperature, read-out: Nav1.7 LBA (Ex. 243B) IC50
- Sequence (Q15858 whole entry, looked up): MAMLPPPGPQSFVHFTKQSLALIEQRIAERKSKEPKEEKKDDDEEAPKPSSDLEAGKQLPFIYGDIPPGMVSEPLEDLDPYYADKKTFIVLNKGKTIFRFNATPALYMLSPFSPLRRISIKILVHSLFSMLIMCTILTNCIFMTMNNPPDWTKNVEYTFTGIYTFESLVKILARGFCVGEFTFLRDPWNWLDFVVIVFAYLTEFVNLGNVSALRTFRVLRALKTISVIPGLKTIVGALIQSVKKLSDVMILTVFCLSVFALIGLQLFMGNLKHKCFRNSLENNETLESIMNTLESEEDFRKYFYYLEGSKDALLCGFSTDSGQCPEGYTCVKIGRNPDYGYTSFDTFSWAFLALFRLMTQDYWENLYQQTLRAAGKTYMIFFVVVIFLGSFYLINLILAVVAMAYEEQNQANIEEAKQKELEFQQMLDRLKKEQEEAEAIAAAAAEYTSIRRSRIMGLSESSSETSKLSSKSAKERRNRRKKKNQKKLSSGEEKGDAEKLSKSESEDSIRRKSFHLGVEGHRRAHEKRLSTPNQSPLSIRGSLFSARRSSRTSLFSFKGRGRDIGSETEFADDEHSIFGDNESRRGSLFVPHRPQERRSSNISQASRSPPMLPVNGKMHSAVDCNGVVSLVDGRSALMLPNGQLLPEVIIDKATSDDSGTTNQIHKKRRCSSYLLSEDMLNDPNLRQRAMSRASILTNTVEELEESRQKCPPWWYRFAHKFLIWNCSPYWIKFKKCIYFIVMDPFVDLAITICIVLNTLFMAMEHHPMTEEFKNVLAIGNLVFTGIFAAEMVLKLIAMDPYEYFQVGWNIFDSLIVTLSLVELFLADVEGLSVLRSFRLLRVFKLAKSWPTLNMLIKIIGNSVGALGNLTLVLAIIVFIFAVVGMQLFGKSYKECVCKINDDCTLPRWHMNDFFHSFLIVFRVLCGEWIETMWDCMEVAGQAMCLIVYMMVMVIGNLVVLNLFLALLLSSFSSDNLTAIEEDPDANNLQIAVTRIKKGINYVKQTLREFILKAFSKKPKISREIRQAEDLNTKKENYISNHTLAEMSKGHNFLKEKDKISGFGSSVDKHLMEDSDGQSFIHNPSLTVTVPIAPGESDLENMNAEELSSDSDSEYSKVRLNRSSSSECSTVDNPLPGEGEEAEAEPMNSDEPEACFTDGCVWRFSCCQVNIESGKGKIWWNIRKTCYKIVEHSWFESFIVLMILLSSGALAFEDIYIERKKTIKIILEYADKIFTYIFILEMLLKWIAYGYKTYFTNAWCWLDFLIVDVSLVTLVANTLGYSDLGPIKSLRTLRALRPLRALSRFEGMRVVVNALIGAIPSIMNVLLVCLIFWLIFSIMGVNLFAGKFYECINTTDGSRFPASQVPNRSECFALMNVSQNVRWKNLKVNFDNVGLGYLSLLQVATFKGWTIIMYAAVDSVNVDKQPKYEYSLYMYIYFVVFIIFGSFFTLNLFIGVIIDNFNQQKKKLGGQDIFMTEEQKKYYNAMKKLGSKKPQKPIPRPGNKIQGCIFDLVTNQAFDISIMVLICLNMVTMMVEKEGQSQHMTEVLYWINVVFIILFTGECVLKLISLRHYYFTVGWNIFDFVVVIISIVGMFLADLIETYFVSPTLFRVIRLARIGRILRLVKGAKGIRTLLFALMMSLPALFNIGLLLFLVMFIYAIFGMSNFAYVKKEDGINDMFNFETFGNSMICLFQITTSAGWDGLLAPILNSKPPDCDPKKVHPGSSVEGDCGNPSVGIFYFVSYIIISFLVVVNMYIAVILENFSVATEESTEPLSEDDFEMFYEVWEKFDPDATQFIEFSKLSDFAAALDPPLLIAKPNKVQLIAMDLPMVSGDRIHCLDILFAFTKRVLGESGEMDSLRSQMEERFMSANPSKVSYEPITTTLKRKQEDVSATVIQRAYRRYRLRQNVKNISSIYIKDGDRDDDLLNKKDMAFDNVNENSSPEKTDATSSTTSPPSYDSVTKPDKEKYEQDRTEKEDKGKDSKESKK
- Sequence (Q07699 whole entry partner, looked up): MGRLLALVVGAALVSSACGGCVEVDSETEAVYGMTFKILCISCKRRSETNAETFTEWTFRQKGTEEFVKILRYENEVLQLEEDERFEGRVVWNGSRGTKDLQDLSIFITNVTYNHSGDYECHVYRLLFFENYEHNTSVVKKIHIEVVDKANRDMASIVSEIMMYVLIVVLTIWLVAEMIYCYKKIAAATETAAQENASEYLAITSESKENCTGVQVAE
pIC50: −log10 of the molar value. Structures can show the parent of a compound that is named as a salt.
Binary call on pIC50: condition met from 7 upward, condition not met beneath that.

CN(C)[C@H]1CC=CC[C@@H]1Nc1cc(F)c(S(=O)(=O)Nc2nccs2)cc1Cl [Example 141, formate]    condition not met
CN(CC1(F)CC1)[C@H]1CCCC[C@@H]1Nc1cc(F)c(S(=O)(=O)Nc2nccs2)cc1Cl [Example 136]    condition not met
CN(CCC(C)(C)O)[C@H]1CCCC[C@@H]1Nc1cc(F)c(S(=O)(=O)Nc2cccc(F)n2)cc1Cl [Example 124]    condition not met
CN(C)[C@H]1CC(F)(F)CC[C@@H]1Nc1cc(F)c(S(=O)(=O)Nc2nccs2)cc1Cl [Example 187, formate]    condition not met

[ask] Assess whether reported pIC50 for CN(C)[C@H]1C[C@H]2C[C@H]2C[C@@H]1Nc1cc(F)c(S(=O)(=O)Nc2nccs2)cc1Cl [Example 214] sits at 7 or higher.
[reply] condition met

[ask] Now consider O=S(=O)(Nc1nccs1)c1cc(Cl)c(N[C@H]2CCCC[C@@H]2N2CCC(F)CC2)cc1F [Example 113] .
[reply] condition not met

###

Below is a list of entries, each paired with its recorded pIC50 value.
- study system: hNav1.7 (Homo sapiens (Human))
- assay: Patch voltage clamp electrophysiology assay (EP), Syncropatch 384PE, CHO cells expressing Nav1.7
- Format: cell-based
- conditions: holding potential -50 mV; […] compound incubation; read-out: EP_SP hNav1.7 (Ex. 243B) IC50
Where a name gives a salt, the structure may show the parent alone.
Note: pIC50 values are expressed as the negative base-10 logarithm of concentration in M.

As a guide, the following entries are already answered.
CN(C1CNC1)[C@H]1CCCC[C@@H]1Oc1cc(F)c(S(=O)(=O)Nc2nccs2)cc1Cl [Example 66, formate]    8.54
O=S(=O)(Nc1nccs1)c1cc(Cl)c(N[C@H]2CCCC[C@@H]2N2CCC[C@H](O)C2)cc1F [Example 153]    8.39
CN(CCC(C)(C)O)[C@H]1CCCC[C@@H]1Nc1cc(F)c(S(=O)(=O)Nc2cccc(F)n2)cc1Cl [Example 124]    6.97
CN(C)[C@H]1C[C@@H](c2cccc(C(F)(F)F)c2)CC[C@@H]1Nc1cc(F)c(S(=O)(=O)Nc2ccncn2)cc1C1CC1 [Example 230, formate]    8.82
CN(C)[C@H]1C[C@@H](c2cccc(C(F)(F)F)c2)CC[C@@H]1Nc1ccc(S(=O)(=O)Nc2ccncn2)c(F)c1 [Example 237, formate]    8.97
COc1cc(S(=O)(=O)Nc2ccncn2)c(F)cc1N[C@H]1CC[C@H](c2cccc(C(F)(F)F)c2)C[C@@H]1N(C)C [Example 241, formate]    8.83

Read the next record carefully.
[ask] What measured pIC50 goes with CCN(C)[C@H]1CCCC[C@@H]1Nc1cc(F)c(S(=O)(=O)Nc2nc(C)cs2)cc1Cl [Example 102, formate] ?
[reply] 7.18
